biological target: human PDE5 (Homo sapiens, UniProt O76074); construct: from tissue; host or cells: human platelets from fresh donor blood (platelet lysate); test: Inhibition of PDE5 activity (platelet lysate, SPA assay); format: biochemical; conditions: 0.5 μM cGMP, read-out: PDE5 Inhibitory values measured as -logIC50 (converted)
Quick reference for IC50 among some molecules

Take a look at these entries with their results.
[[record]]
chemical_string = "COc1ccc(C[C@H](NC(=O)c2c[nH]c3c(-c4c(OCC5CC5)ccc5c4OCO5)ncnc23)C(=O)N2CCC(N3N=C(c4ccc(OC)c(OC)c4)[C@H]4CCCC[C@H]4C3=O)CC2)cc1OC"
observed_property = "IC50"
result = "1 to 10 nM"

[[record]]
chemical_string = "COc1ccc(C2=NN(C3CCN(C(=O)CNC(=O)c4c[nH]c5c(-c6c(OCC7CC7)ccc7c6OCO7)ncnc45)CC3)C(=O)C3(CCCC3)C2)cc1OC"
observed_property = "IC50"
result = "1 to 10 nM"


# input for lookup
[in] Which measured IC50 value corresponds to COc1ccc(C2=NN(C3CCN(C(=O)[C@@H](Cc4ccccc4)NC(=O)c4c(C)[nH]c5c(-c6c(OCC7CC7)ccc7c6OCO7)ncnc45)CC3)C(=O)[C@@H]3CCCC[C@H]23)cc1OC ?
[out] < 1 nM

====

Target: human PDE5 (Homo sapiens, UniProt O76074)
Construct: from tissue; host or cells: human platelets from fresh donor blood (platelet lysate)
Test: Inhibition of PDE5 activity (platelet lysate, SPA assay)
Type: biochemical
Conditions: 0.5 μM cGMP, read-out: PDE5 Inhibitory values measured as -logIC50 (converted)
Method: Method for Measuring Inhibition of PDE5 Activity As a source for human PDE5, platelets were used. […] PDE5 activities were measured in a 96-well platform using SPA (scintillation proximity assay) yttrium silicate beads (RPNQ1050 from GE Healthcare). […] Once the beads were sedimented (>30 min), the MTP's were analyzed in commercially available luminescence detection devices. […]
Recorded IC50 by entry

Look over these answered cases.
[[record]]
chemical_string = "CC[C@H](NC(=O)c1c(C)[nH]c2c(-c3c(OCC4CC4)ccc4c3OCO4)ncnc12)C(=O)N1CCC(N2N=C(c3ccc(OC)c(OC)c3)[C@H]3CCCC[C@H]3C2=O)CC1"
observed_property = "IC50"
result = "< 1 nM"

[[record]]
chemical_string = "COc1ccc(C2=NN(C3CCN(C(=O)[C@@H](Cc4ccncc4)NC(=O)c4c[nH]c5c(-c6c(OCC7CC7)ccc7c6OCO7)ncnc45)CC3)C(=O)[C@@H]3CCCC[C@H]23)cc1OC"
observed_property = "IC50"
result = "< 1 nM"

[[record]]
chemical_string = "COc1ccc(C2=NN(C3CCN(C(=O)[C@@H](C)NC(=O)c4c[nH]c5c(-c6c(OCC7CC7)ccc7c6OCO7)ncnc45)CC3)C(=O)C(C)(C)C2)cc1OC"
observed_property = "IC50"
result = "1 to 10 nM"

[[record]]
chemical_string = "COc1ccc(C2=NN(C3CCN(C(=O)[C@@H](CN(C)C)NC(=O)c4c[nH]c5c(-c6c(OCC7CC7)ccc7c6OCO7)ncnc45)CC3)C(=O)[C@@H]3CCCC[C@H]23)cc1OC"
observed_property = "IC50"
result = "1 to 10 nM"

[[record]]
chemical_string = "COc1ccc(C2=NN(C3CCN(C(=O)[C@@H](Cc4ccccc4C(F)(F)F)NC(=O)c4c[nH]c5c(-c6c(OCC7CC7)ccc7c6OCO7)ncnc45)CC3)C(=O)[C@@H]3CCCC[C@H]23)cc1OC"
observed_property = "IC50"
result = "< 1 nM"


[in] // lookup IC50 for COc1ccc(C2=NN(C3CCN(C(=O)[C@@H](Cc4cccc(Cl)c4)NC(=O)c4c[nH]c5c(-c6c(OCC7CC7)ccc7c6OCO7)ncnc45)CC3)C(=O)[C@@H]3CCCC[C@H]23)cc1OC
[out] 1 to 10 nM

[in] Looking for the measured IC50 of COc1ccc(C2=NN(C3CCN(C(=O)[C@@H](Cc4ccc(F)c(F)c4)NC(=O)c4c[nH]c5c(-c6c(OCC7CC7)ccc7c6OCO7)ncnc45)CC3)C(=O)[C@@H]3CCCC[C@H]23)cc1OC , can you help?
[out] 1 to 10 nM

[in] State the recorded IC50 for this entry: COc1ccc(C2=NN(C3CCN(C(=O)[C@H](CCC(=O)N4CCCCC4)NC(=O)c4c(C)[nH]c5c(-c6c(OCC7CC7)ccc7c6OCO7)ncnc45)CC3)C(=O)[C@@H]3CCCC[C@H]23)cc1OC
[out] < 1 nM

[in] For the molecule shown here, COc1cc(-c2ncnc3c(C(=O)N[C@H](Cc4ccccc4)C(=O)N4CCC(N5N=C(c6ccc(OC)c(OC)c6)[C@H]6CCCC[C@H]6C5=O)CC4)c[nH]c23)c(OCC2CC2)cc1F , give the reported IC50.
[out] 1 to 10 nM

[in] Which IC50 reading was recorded for the molecule COc1ccc(C2=NN(C3CCN(C(=O)[C@@H](Cc4ccc(O)cc4)NC(=O)c4c[nH]c5c(-c6c(OCC7CC7)ccc7c6OCO7)ncnc45)CC3)C(=O)[C@@H]3CCCC[C@H]23)cc1OC ?
[out] < 1 nM
